# System: T1, human CD28, full-length, expressed on transfected Expi293 cells (human, UniProt P10747 19-220)
# T1 construct: whole, on cells
# Assay Method Text: flow cytometry, 100 nM, Expi293 cells with human CD28
Quantity Kind: MFI ratio to WT (ΔWT) (fold)
Dear colleague, please return just the value in fold, with no unit written.

input: What does the record list as MFI ratio to WT (ΔWT) for variant ICOSL IgV-Fc fusion N52L/N57H/Q100R (Fc fusion) DTQEKEVRAMVGSDVELSCACPEGSRFDLNDVYVYWQTSESKTVVTYHIPQLSSLEHVDSRYRNRALMSPAGMLRGDFSLRLFNVTPQDEQKFHCLVLSRSLGFQEVLSVEVTLHVAANFSVGSGGGGSEPKSSDKTHTCPPCPAPEAEGAPSVFLFPPKPKDTLMISRTPEVTCVVVDVSHEDPEVKFNWYVDGVEVHNAKTKPREEQYNSTYRVVSVLTVLHQDWLNGKEYKCKVSNKALPAPIEKTISKAKGQPREPQVYTLPPSREEMTKNQVSLTCLVKGFYPSDIAVEWESNGQPENNYKTTPPVLDSDGSFFLYSKLTVDKSRWQQGNVFSCSVMHEALHNHYTQKSLSLSPG ?
output: 6.3

Origin of values: patent US20230235012A1
